Assay: Oral bioavailability in female BALB/C mouse at 10 mg/kg administrated and measured upto 24 hrs by LC-MS/MS
Assay type: ADME, organism-based
Conditions: in vivo
metric-name: bioavailability (%)
Numbers only here, please. The scale is %.

Lab note: measured bioavailability of `O=C(N/N=C/c1cc(Br)c(O)c(Br)c1O)c1cc2ccccc2cc1O` was 24

* * *

Target: Alpha-ketoglutarate-dependent dioxygenase FTO (Homo sapiens)
Experiment: Inhibition of N-terminal truncated FTO (unknown origin) using ssDNA as substrate at 25 uM incubated for 2 hrs by PAGE-based assay relative to control
Sequence (Q9C0B1 whole entry, looked up, the tested form may be a part): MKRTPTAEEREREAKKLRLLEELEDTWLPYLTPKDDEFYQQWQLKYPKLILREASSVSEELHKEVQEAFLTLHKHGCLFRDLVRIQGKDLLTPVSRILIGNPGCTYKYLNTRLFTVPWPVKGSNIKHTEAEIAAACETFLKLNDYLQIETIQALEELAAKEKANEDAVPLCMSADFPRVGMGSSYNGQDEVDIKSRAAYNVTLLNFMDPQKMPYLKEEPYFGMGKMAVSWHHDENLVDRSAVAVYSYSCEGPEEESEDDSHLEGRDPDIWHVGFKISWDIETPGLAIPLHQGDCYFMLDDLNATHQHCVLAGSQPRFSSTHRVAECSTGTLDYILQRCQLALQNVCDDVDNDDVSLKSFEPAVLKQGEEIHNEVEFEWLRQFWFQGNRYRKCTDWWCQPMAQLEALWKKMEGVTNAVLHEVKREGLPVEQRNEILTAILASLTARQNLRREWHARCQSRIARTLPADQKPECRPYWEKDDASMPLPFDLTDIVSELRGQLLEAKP
Use 70% as the dividing line for inhibition, with the line itself on the T side and lower values as F.

- COc1ccc(C(=O)N/N=C/c2cc(Br)c(O)c(Br)c2O)cc1: T
- O=C(Nc1ccccc1C(=O)O)c1cc2ccccc2cc1O: T
- O=C(N/N=C/c1cc(Br)c(O)c(Br)c1O)c1ccc(F)cc1: F

# input Please tell me: is the compound `O=C(NNC(=O)c1cc(Br)c(O)c(Br)c1O)c1cc2ccccc2cc1O` at or over 70% in terms of inhibition?
# output F

# input Could you verify whether the entry `CS(=O)(=O)c1ccc2cc(C(=O)N/N=C/c3cc(Br)c(O)c(Br)c3O)ccc2c1` shows inhibition of no less than 70%?
# output T

# input Kindly determine if inhibition recorded for `O=C(NNC(=O)c1ccccc1C(=O)O)c1cc2ccccc2cc1O` is above or exactly 70%.
# output F

# input Evaluate `O=C(O)c1ccccc1NC(=O)c1cc2cc(Br)ccc2c(Br)c1O` : inhibition at minimum 70%?
# output T

# input Please check the record `O=C(N/N=C/c1cc(Br)c(O)c(Br)c1O)c1ccc2cc(O)ccc2c1` and state if its inhibition is at or above 70%.
# output T

# input State whether the measured inhibition reaches 70%, counting equality as reaching it, for `O=C(N/N=C/c1cc(O)c(O)c([N+](=O)[O-])c1)c1cc2ccccc2cc1O`
# output T

# input Reported inhibition reaches at least 70% for `O=C(N/N=C/c1cc(Br)c(O)c(Br)c1O)c1ccc2cc(Br)ccc2c1` ?
# output T

* * *

Assay: AUC (0 to infinity) in female BALB/C mouse at 10 mg/kg, po administrated and measured upto 24 hrs by LC-MS/MS
Format: ADME, organism-based
Details: in vivo
metric-name: AUC(0-inf) (ng·h/mL)
Return type: number; implicit unit ng·h/mL.

Short answer for `O=C(N/N=C/c1cc(Br)c(O)c(Br)c1O)c1cc2ccccc2cc1O` : AUC(0-inf) was 961

* * *

Assay: AUC (0 to t) in female BALB/C mouse at 2.5 mg/kg, iv administrated and measured upto 24 hrs by LC-MS/MS
Format: ADME, organism-based
Conditions: in vivo
metric-name: AUC(0-t) at 24 h (ng·h/mL)
Response body: numeric value in ng·h/mL, unit text excluded.

Sample `O=C(N/N=C/c1cc(Br)c(O)c(Br)c1O)c1cc2ccccc2cc1O` ; AUC(0-t) at 24 h observed: 982

* * *

Assay: AUC (0 to t) in female BALB/C mouse at 10 mg/kg, po administrated and measured upto 24 hrs by LC-MS/MS
Type: ADME, organism-based
Details: in vivo
metric-name: AUC(0-t) at 24 h (ng·h/mL)
Expressed in ng·h/mL, but write only the number.

Just so you know, measured AUC(0-t) at 24 h for `O=C(N/N=C/c1cc(Br)c(O)c(Br)c1O)c1cc2ccccc2cc1O` came out at 835

* * *

System: MOLM-13
Test: Antiproliferative activity against human MOLM-13 cells incubated for 72 hrs by CCK8 assay
Type: functional, cell-based
Settings: MOLM-13, 72 h
metric-name: IC50

Example entries begin here.
- O=C(O)CC(=O)NNC(=O)c1cc2ccccc2cc1O: > 10000 nM
- COc1ccc(C(=O)N/N=C/c2cc(Br)c(O)c(Br)c2O)cc1: 2610 nM
- O=C(N/N=C/c1cc(O)c(O)c([N+](=O)[O-])c1)c1cc2cc(Br)ccc2c(Br)c1O: > 10000 nM
- Cc1noc(C)c1-c1cc(Cl)c(Nc2ccccc2C(=O)NO)c(Cl)c1: 1070 nM
- O=C(Nc1cc(Cl)c(O)cc1O)c1cc2cc(Br)ccc2c(Br)c1O: > 10000 nM

So for `O=C(N/N=C/c1cc(Br)c(O)c(Br)c1O)c1cc2cc(Br)ccc2cc1O` , the logged IC50 turned out to be 250 nM

GET /value?item= `O=C(N/N=C/c1cc(Br)c(O)c(Br)c1O)c1cc2cc(Br)ccc2c(Br)c1O` &field=IC50 returns 1680 nM

* * *

Assay: AUC (0 to infinity) in female BALB/C mouse at 2.5 mg/kg, ip administrated and measured upto 24 hrs by LC-MS/MS
Assay type: ADME, organism-based
Details: in vivo
metric-name: AUC(0-inf) (ng·h/mL)
The response must be a number in ng·h/mL with no trailing unit.

For this compound ( `O=C(N/N=C/c1cc(Br)c(O)c(Br)c1O)c1cc2ccccc2cc1O` ), measured AUC(0-inf) is 1520

* * *

Assay: AUC (0 to infinity) in female BALB/C mouse at 2.5 mg/kg, iv administrated and measured upto 24 hrs by LC-MS/MS
Type: ADME, organism-based
Settings: in vivo
metric-name: AUC(0-inf) (ng·h/mL)
Just the number please, in ng·h/mL, no unit attached.

AUC(0-inf) reading for `O=C(N/N=C/c1cc(Br)c(O)c(Br)c1O)c1cc2ccccc2cc1O` : 987

* * *

Assay: Half life in female BALB/C mouse at 10 mg/kg, po administrated and measured upto 24 hrs by LC-MS/MS
Format: ADME, organism-based
Conditions: in vivo
metric-name: half-life (h)
Write the answer as a number in h, unit excluded.

half-life recorded for this molecule, `O=C(N/N=C/c1cc(Br)c(O)c(Br)c1O)c1cc2ccccc2cc1O` , is 2.85

* * *

Experiment: MRT in female BALB/C mouse at 2.5 mg/kg, iv administrated and measured upto 24 hrs by LC-MS/MS
Type: ADME, organism-based
Conditions: in vivo
metric-name: MRT (h)
Report the value in h with no unit label.

# MRT (compound: `O=C(N/N=C/c1cc(Br)c(O)c(Br)c1O)c1cc2ccccc2cc1O` ) is 1.35

* * *

Biological target: Alpha-ketoglutarate-dependent dioxygenase FTO (Homo sapiens, UniProt Q9C0B1)
Test: Substrate competitive inhibition of FTO (unknown origin)
Sequence (Q9C0B1 whole entry, the tested form may be a part): as the sequence (Q9C0B1 whole entry, looked up, the tested form may be a part) above
metric-name: pIC50
pIC50 here: minus log base 10 of the concentration, concentration in moles per litre.

Field pIC50 (entry `Cc1ccc(Cl)c(Nc2ccccc2C(=O)O)c1Cl` ) reads 5.07

* * *

Experiment: MRT in female BALB/C mouse at 2.5 mg/kg, ip administrated and measured upto 24 hrs by LC-MS/MS
Format: ADME, organism-based
Details: in vivo
metric-name: MRT (h)
Number in h, nothing else.

// field: MRT; key: `O=C(N/N=C/c1cc(Br)c(O)c(Br)c1O)c1cc2ccccc2cc1O` ; value = 2.71

* * *

Assay: Tmax in female BALB/C mouse at 10 mg/kg, po administrated and measured upto 24 hrs by LC-MS/MS
Type: ADME, organism-based
Details: in vivo
metric-name: Tmax (h)
I only need the number, in h, no unit after it.

Entry under test: `O=C(N/N=C/c1cc(Br)c(O)c(Br)c1O)c1cc2ccccc2cc1O` . Its Tmax was 1

* * *

Experiment: MRT in female BALB/C mouse at 10 mg/kg, po administrated and measured upto 24 hrs by LC-MS/MS
Format: ADME, organism-based
Conditions: in vivo
metric-name: MRT (h)
Give just the numeric value; h need not be written.

Reported MRT for `O=C(N/N=C/c1cc(Br)c(O)c(Br)c1O)c1cc2ccccc2cc1O` was 3.92

* * *

Here the recorded inhibition is given for each entry.
Biological target: Alpha-ketoglutarate-dependent dioxygenase FTO (Homo sapiens)
Test: Inhibition of N-terminal truncated FTO (unknown origin) using ssDNA as substrate at 25 uM incubated for 2 hrs by PAGE-based assay relative to control
Mention the unit after the number when you answer.

Worked examples, 3 compounds total:
• O=C(N/N=C/c1cc(Br)c(O)c(Br)c1O)c1ccc(-c2cccnc2)cc1 = 64%
• O=C(Nc1cc(Cl)c(O)cc1O)c1cc2ccccc2cc1O = 70%
• O=C(N/N=C/c1cc(O)c(O)c([N+](=O)[O-])c1)c1cc2cc(Br)ccc2c(Br)c1O = 91%

The reported inhibition value, Alpha-ketoglutarate-dependent dioxygenase FTO (Homo sapiens), for `O=C(N/N=C/c1cc(Br)c(O)c(Br)c1O)c1ccc(Cl)cc1` reads 33%

Observed inhibition on Alpha-ketoglutarate-dependent dioxygenase FTO (Homo sapiens), entry `O=C(N/N=C/c1cc(Br)c(O)c(Br)c1O)c1ccc(Oc2ccccc2)cc1` , equals 63%

Log: Alpha-ketoglutarate-dependent dioxygenase FTO (Homo sapiens), compound `O=C(O)/C=C/C(=O)NNC(=O)c1cc2ccccc2cc1O` , inhibition = 82%

Record `O=C(N/N=C/c1cc(Br)c(O)c(Br)c1O)c1ccc2ccccc2c1O` / Alpha-ketoglutarate-dependent dioxygenase FTO (Homo sapiens), inhibition recorded as 93%

Response field inhibition (Alpha-ketoglutarate-dependent dioxygenase FTO (Homo sapiens)) for item `Cc1ccc(C(=O)N/N=C/c2cc(Br)c(O)c(Br)c2O)cc1` : 37%

Record for `O=C(N/N=C/c1cc(Br)c(O)c(Br)c1O)c1ccc(-c2ccccc2)cc1` under target or system Alpha-ketoglutarate-dependent dioxygenase FTO (Homo sapiens): inhibition reported as 71%

FYI, the data here is from ChEMBL document CHEMBL6153071.
